Assayed System: NtcA (Prochlorococcus marinus)
Construct: recombinant His6-tagged NtcA (pET-15b)
Sequence (Q7TUG3 1-244): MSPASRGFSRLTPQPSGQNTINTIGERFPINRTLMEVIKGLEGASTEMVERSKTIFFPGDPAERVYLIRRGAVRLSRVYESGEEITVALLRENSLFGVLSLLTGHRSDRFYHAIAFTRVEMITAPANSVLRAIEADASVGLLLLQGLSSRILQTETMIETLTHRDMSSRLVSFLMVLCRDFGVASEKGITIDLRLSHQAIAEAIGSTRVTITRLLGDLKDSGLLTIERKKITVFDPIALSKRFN
Protocol Text: ITC of NtcA-dsDNA at varied 2OG, ternary equilibrium fit
pKd: −log10 of the molar value.

Compound: O=C(O)CCC(=O)C(=O)O [2OG, 2-oxoglutarate]
pKd: 1.44
